Test system: 282377-053-R-J1-PDC complex spheroids, viability;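 further: spheroids exposed to compounds for 7 days before readout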
assay.overview: Anticancer human tumor 282377-053-R-J1-PDC patient-derived colon adenocarcinoma cell line growth inhibition [GQUAD]
stated.conditions: second compound 0.316 µM; first compound 3.16 µM; stronger effect = lower value
Description: DNA G-quadruplex Stabilizer Agents in Combinations in Complex Spheroids A high-throughput screen of multi-cell type tumor spheroids was designed to identify active combinations of DNA G-quadruplex stabilizer agents and targeted small molecules. […] Compounds. […] If the clinical Cmax for an agent had not been determined, the highest concentration tested was 10 microM. […]
Classify: true when viability, T/C is strictly less than 70%; false when viability, T/C is not.

molecule | target.system | label.class
CC1COCCN1c1cc(-c2ccnn2C)c2ccnc(-c3ccn[nH]3)c2n1 (stereo unspecified) + Cc1[nH]c2ccc(F)cc2c1-c1nc2c3cccnc3c3ncccc3c2[nH]1 | 282377-053-R-J1-PDC complex spheroids, viability | true

Problem: For the molecule O=C(NO)c1cnc(N2CCN(S(=O)(=O)c3ccc4ccccc4c3)CC2)nc1 + Cc1[nH]c2ccc(F)cc2c1-c1nc2c3cccnc3c3ncccc3c2[nH]1 , is viability, T/C under 70%?
true

Answer whether the molecule COc1ncnc(C2CC2)c1-c1ncc2cnn(Cc3ccc(-c4nc(C(F)(F)F)cn4C(C)C)cc3)c2n1 + Cc1[nH]c2ccc(F)cc2c1-c1nc2c3cccnc3c3ncccc3c2[nH]1 has viability, T/C strictly less than 70%
false
